system: HT29 colon; assay: NCI-60 one-dose screen, 48 h; settings: 10 µM unless noted
About 83,000 compounds went through this panel and 20% of them were active in at least one assay; those are over-represented in the sample as a whole. Active and inactive are the calls of the source. The calls were made as follows: active = growth percent below 10; inactive = the rest.
Outcome field: choose from class 1 = active, class 0 = inactive

Query block: For C=C(C)[C@@H]1CC[C@]2(C(=O)NCCCCCN(CCC#N)CCC#N)CC[C@]3(C)[C@H](CC[C@@H]4[C@@]5(C)CCC(=O)C(C)(C)[C@@H]5CC[C@]43C)[C@@H]12 , which call appears in the assay record?
Result block: class 0

Query block: For Nc1ncc(-c2ccc3ncnc(N4CCc5cc(F)c(Cl)cc54)c3c2)cn1 , which call appears in the assay record?
Result block: class 0

Query block: For O=C(c1ccc(O)c(C(=O)N2Cc3ccc(OCCC[P+](c4ccccc4)(c4ccccc4)c4ccccc4)cc3C2)c1)N1Cc2cccc(F)c2C1 , which call appears in the assay record?
Result block: class 0

Query block: For O=S(=O)(Nc1cccc2ccccc12)c1ccc(-c2cnc(C3CC3)o2)cc1 , which call appears in the assay record?
Result block: class 0

Query block: For C=C(C=O)[C@@H]1CC[C@]2(C)[C@H](C(=O)C=C3[C@H]4C[C@](C)(C(=O)OC)CC[C@]4(C)CC[C@]32C)[C@@]1(C)CCC#N , which call appears in the assay record?
Result block: class 1

Query block: For N#Cc1cccc(/C(N)=N/C(N)=N/c2nc3ccccc3s2)c1 , which call appears in the assay record?
Result block: class 0

Query block: For NC/C(=C/F)COc1ccc2nc(NCc3cccnc3)oc2c1 , which call appears in the assay record?
Result block: class 0

Query block: For COc1ccc(-c2nn(-c3ccc(S(C)(=O)=O)cc3)cc2/C=N/O)cc1 , which call appears in the assay record?
Result block: class 0

Query block: For COc1cc(-c2nc(-c3ccccc3)[nH]c2-c2ccnc(NCCCNS(=O)(=O)c3cccc(F)c3)n2)ccc1Cl , which call appears in the assay record?
Result block: class 0

Query block: For COc1ccc(C(=O)c2c(N)c(C#N)cn2-c2ccccc2OC)cc1 , which call appears in the assay record?
Result block: class 1

Query block: For CN1CCN(c2nc(-c3csc(-c4ccccc4)n3)cc3ccccc23)CC1 , which call appears in the assay record?
Result block: class 1

Query block: For CCO/C=N/C1=C(C#N)C(c2ccc(F)cc2)c2sc3c(C)cccc3c2O1 (centres undefined) , which call appears in the assay record?
Result block: class 1

Query block: For CC(C)(C)n1cc(-c2ccnc(NCCCNS(=O)(=O)c3cccc(F)c3)n2)c(-c2ccc(Cl)c(O)c2)n1 , which call appears in the assay record?
Result block: class 0

Query block: For Nc1nc(-c2cccc([N+](=O)[O-])c2)c(N=Nc2ccc(Br)cc2)s1 , which call appears in the assay record?
Result block: class 0

Query block: For CN1c2ccccc2Sc2cc(C=C(C#N)C#N)ccc21 , which call appears in the assay record?
Result block: class 0

Query block: For CC/C(=C/c1cc(OC)ccc1O)c1ccc2cc(OC)ccc2[o+]1 , which call appears in the assay record?
Result block: class 0

Query block: For Cc1ccc(-c2nnc(SCc3ccc(O)c4ncccc34)n2-c2ccccc2)cc1 , which call appears in the assay record?
Result block: class 0

Query block: For CN1CCN(Cc2ccc(NC(=O)c3cncc(C#Cc4cnc5ccc(N6CCN(C)CC6)nn45)c3)cc2C(F)(F)F)CC1 , which call appears in the assay record?
Result block: class 1

Query block: For CCn1c(SCC(=O)Nc2cccc(C(=O)/C=C/c3ccc(C)cc3)c2)nc2ccccc2c1=O , which call appears in the assay record?
Result block: class 0

From: PubChem BioAssay (NCI)
